B1: EEHEE_rd4_0647 (parent)
chain: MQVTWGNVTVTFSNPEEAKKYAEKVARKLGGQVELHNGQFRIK

# Variants of: B1
# ASSAY PROTOCOL: folding stability dG (cDNA display proteolysis); higher = more stable
# EXPERIMENTAL CONDITIONS: PBS, room temperature
variants and their reported folding stability dG
A complete answer gives the number followed by the unit.

Consider the worked cases shown below.
| RESIDUES | RECORDED MEASUREMENT |
| --- | --- |
| MQVTWGNVTVTFSNPEEAKKYAEKVARKLGGQVHLHNGQFRIK | 2.17 kcal/mol |
| MQVTWGNVTVTFSNPEEAKKYAEKVARKAGGQVELHNGQFRIK | 1.76 kcal/mol |
| MQETWGNVTVTFSNPEEAKKYAEKVARKLGGQVELHNGQFRIK | 0.263 kcal/mol |
| MQVTWGNVTVTFSNPEEAKKYAEKVARVLGGQVELHNGQFRIK | 2.87 kcal/mol |
| MQVTWGNVTVTFSNPEEAKKYAEKVARKLGGQVELHNGQFDIK | 1.31 kcal/mol |

Any idea what its folding stability dG is? The variant is MQVTWGNVTVTFSNPEEAKKYAEKVARKLGGQVEKHNGQFRIK
2.11 kcal/mol

And MQVTWGNVNVTFSNPEEAKKYAEKVARKLGGQVELHNGQFRIK ?
1.62 kcal/mol

Same for MQGTWGNVTVTFSNPEEAKKYAEKVARKLGGQVELHNGQFRIK
0.57 kcal/mol
